Parameter: sensor-assay potency score (higher = more potent). Scope: all listed entries.
- Target or system: ADRA2B
- Run description: pooled miR-30 sensor sort-seq; sequence = guide strand
- Measurement parameters: shRNA
Provide a numeric answer; units are not to be included.

Some solved cases for reference:
>>> df
                      seq  meas_value
0  TAACTTGAAATAGTGATTCTGT       0.986
1  TCATCTTAGACTGTTGCCGAGG      -0.739
2  AAGGTGAAGCGCTTCTCCCGGG      -0.311
3  TACTCTGGCCTCAACAACCCAC      -0.575
4  AACGCCAATGACCACAGCCAGC       -1.54
5  TAGACAAGGATCATGATGAGGC      0.0762
6  ATAACAGGGTTCAGTGAGCTGT      -0.793
7  TGTCCGTTGACCTCTCTGGCAG      -0.964
8  TAACAGGGTTCAGTGAGCTGTT       -0.17
9  TTTTTGGTTCTCTAGTGTGTTC       -1.08

Data request: Give the measured sensor-assay potency score (higher = more potent) of AAATCTAGCAGGTCCATCTGGC .
Data returned: -0.198

Data request: Entry TTGGCGATCAGGTAGATGCGCA has what sensor-assay potency score (higher = more potent)?
Data returned: -0.201

Data request: May I ask what sensor-assay potency score (higher = more potent) has been recorded for TACACCTCGCACCACGTGCGCC ?
Data returned: -1.33

---

- Target or system: ACCN3
- Run description: pooled miR-30 sensor sort-seq; sequence = guide strand
- Measurement parameters: shRNA
Endpoint: sensor-assay potency score (higher = more potent)
Number, no unit, nothing else.

Please review the entries below; each comes with its answer.
>>> print(df.to_string())
                      seq  target_or_system  meas_value
0  TAGTAGTGGTGAGCAGCTCTGC             ACCN3      -0.938
1  TTGTCTCGGAACACCTCACAGA             ACCN3      -0.903
2  TTCGGCAGCCGCACTTCCGAGC             ACCN3       -1.09
3  TTGCACAGGGTGACAGCCGGGA             ACCN3      -0.486
4  TAGCACTTTCCCATCCGGGTGA             ACCN3       0.401
5  TATCCCAGGACCTTGTCTCGGA             ACCN3      -0.411

Data request: Which value of sensor-assay potency score (higher = more potent) has been reported for TAAATGTGTAGCACTTTCCCAT in the records?
Data returned: -0.325

Data request: GET /values?readout=sensor-assay potency score (higher = more potent)&item= TGTAGCACTTTCCCATCCGGGT
Data returned: -0.708

Data request: Find the recorded sensor-assay potency score (higher = more potent) belonging to TGTAGTAGCGCACCCTCTCAGC and report it.
Data returned: -1.06

---

Reported sensor-assay potency score (higher = more potent) is given for each of the following sequences.
- Target or system: DMXL1
- Run description: pooled miR-30 sensor sort-seq; sequence = guide strand
- Measurement parameters: shRNA
// return just the number, without any unit appended

>>> print(df.to_string())
                      seq  target_or_system  meas_value
0  TTTCATTAAATGAACTTGGGAA             DMXL1       0.382
1  TTGACTGCTTTCACATTTGTTT             DMXL1      -0.678
2  TTTTCTATAATTCTGAATCAGA             DMXL1      -0.788
3  TAAGTTAAAAGCATTGTGCATT             DMXL1      -0.306
4  TACATTTCTAAATAGTATCTAC             DMXL1      -0.076

Turning now to a further sequence:
Data request: Need sensor-assay potency score (higher = more potent), item TTTCTAAATAGTATCTACTTAA
Data returned: -0.599

---

- Target or system: OLFML2A
- Run description: pooled miR-30 sensor sort-seq; sequence = guide strand
- Measurement parameters: shRNA
Measured sensor-assay potency score (higher = more potent), listed per entry for reference.
I only need the number, thanks.

Data request: Form field: reported sensor-assay potency score (higher = more potent) of TTGTACATGTTACTCCAGCGGC
Data returned: -0.677

Data request: Find the recorded sensor-assay potency score (higher = more potent) belonging to TTGTAGTAGGTGAAGCCCCGGA and report it.
Data returned: -0.647

Data request: Which sensor-assay potency score (higher = more potent) is listed for TACTTGATGATGTTCTTGGTGA ?
Data returned: 0.197

Data request: Which sensor-assay potency score (higher = more potent) value is on record for TTTCCATAGTAGTAGTTGGTGA ?
Data returned: -0.818

Data request: // returns reported sensor-assay potency score (higher = more potent) for input TAGCTTGTACATGTTACTCCAG
Data returned: -0.555

Data request: Given the entry TTCAAACATACAGACATCCAGG , report its measured sensor-assay potency score (higher = more potent).
Data returned: -0.00393

---

- Target or system: NT5C3L
- Run description: pooled miR-30 sensor sort-seq; sequence = guide strand
- Measurement parameters: shRNA
# reported sensor-assay potency score (higher = more potent); entries follow
Write the value as a bare number.

>>> df
                      seq  meas_value
0  TATCTGAAACTTCTGAATCTTC      -0.418
1  TAGAGCACTGACATGCTGTGGT       0.517

Data request: Looking for the measured sensor-assay potency score (higher = more potent) of TAGCCCGTTGACCACATCCAGA , can you help?
Data returned: -1.7

Data request: # lookup: sensor-assay potency score (higher = more potent) of AAACTTCTGAATCTTCTGCTGA
Data returned: -0.000526

Data request: GET /values?readout=sensor-assay potency score (higher = more potent)&item= ATTGGACTCTCTAACCACCTGG
Data returned: 0.547

---

- Target or system: TSEN34
- Run description: pooled miR-30 sensor sort-seq; sequence = guide strand
- Measurement parameters: shRNA
Endpoint: sensor-assay potency score (higher = more potent)

Consider the reported sensor-assay potency score (higher = more potent) for these sequences:
>>> df
                      seq  meas_value
0  AATCTTCTCCAGGAGCTCCTGA       -1.01
1  ATCACTGGTCTCATCCTCTTTG      -0.941
2  TCTTTAGACTGGACACGCCAGT       -1.04

Data request: Recorded sensor-assay potency score (higher = more potent) of TAGACTGGACACGCCAGTCCAG , please.
Data returned: -1.11

Data request: Record request: sensor-assay potency score (higher = more potent) value, item TTTCTGCTTCTTAGCAGCCTGG
Data returned: -1.47

---

- Target or system: COMMD10
- Run description: pooled miR-30 sensor sort-seq; sequence = guide strand
- Measurement parameters: shRNA
Recorded sensor-assay potency score (higher = more potent), one value per entry.
Just the number.

In [3]: df
Out[3]:
                      seq  meas_value
0  TTGAGCAGAGTGAGCCATCTGA      -0.146
1  TTGCATTTATCAGTGACACTGC       0.191
2  TTGTCTAAGATGAATGTTCTCT       0.187
3  TTAACAATGATCTCTATTGGTT      -0.722
4  TATTGTTTCAAGAACTAGGTGA       0.412
5  TAGAAATCAAACAACTCCTTGT       0.836
6  TTCCACAAGAACTTTCTCCAGG      -0.261
7  TGCTTGTATAGTCTCTAGCTTG       -1.08

Data request: Returns the measured sensor-assay potency score (higher = more potent) for the input sequence. Input: TTCTACTAAGGTACACATCTTA
Data returned: 0.49

---

- Target or system: SHROOM4
- Run description: pooled miR-30 sensor sort-seq; sequence = guide strand
- Measurement parameters: shRNA
Endpoint: sensor-assay potency score (higher = more potent)
API doc: respond with a numeric literal and nothing else, no unit.

In [3]: df
Out[3]:
                      seq  meas_value
0  TTGCTTGCAAAACATTCTGAGT       -1.21

Data request: For the sequence shown here, TAGTGGTTGAAGAACAGTCCGT , give the reported sensor-assay potency score (higher = more potent).
Data returned: -0.287

Data request: Any idea what sensor-assay potency score (higher = more potent) was measured for TTGAAGAACAGTCCGTGGCTTG ?
Data returned: -0.301

Data request: I am curious: what sensor-assay potency score (higher = more potent) value has been reported for TAGAGCTCCTTGAACACTGCAG ?
Data returned: 0.417
